Reported growth values follow for various molecules
# Tested on: HOP-62 NSCLC
# assay explanation: NCI-60 one-dose screen, 48 h (100 = growth as untreated, 0 = no growth, -100 = all killed)
# protocol conditions: 10 µM
# Description: Growth inhibition of the HOP-62 human Non-Small Cell Lung tumor cell line is measured as a screen for anti-cancer activity. Cells are grown in 96 well plates and exposed to the test compound for 48 hours. Compounds are tested at a single concentration, which is 10^-5 M for most compounds. The reported endpoint is percent growth (GI% or GIPRCNT), where numbers from 0 - 100% represent growth inhibition, and numbers from -100% - 0 represent cell death. […]
Compounds without any hit were thinned out: in the full panel of roughly 83,000, 20% have a hit.
Report the value in % with no unit label.

Guide cases for growth, answers given:
molecule=CSc1nc(=O)n(Cc2ccc(F)cc2)c(=O)n1Cc1ccc(C)cc1 units_text=% experimental_value=101
molecule=CNc1ncc(-c2ccc(C(F)(F)F)cc2)c(NC2CCCCCC2)n1 units_text=% experimental_value=92.6
molecule="CCN1CCC(CCOC)(CN2c3ccccc3Sc3ccc(Cl)cc32)C1 (centres undefined)" units_text=% experimental_value=58.3

The reported growth of the molecule N#CSCC1CC(O)(c2ccccc2)CC(c2ccc(Cl)cc2)O1 (centres undefined) was 75.1

C=C1c2c(C)nn(-c3ccc(OC)cc3)c2N(C)C23C[C@@H]1C1(C)c4c(C)nn(-c5ccc(OC)cc5)c4N(C)C(C)(C[C@H]12)C3 (some centres undefined) yielded growth of 59.9

* * *

# Tested on: COLO 205 colon
# assay explanation: NCI-60 one-dose screen, 48 h (100 = growth as untreated, 0 = no growth, -100 = all killed)
# protocol conditions: 10 µM
This is part of a sample that, as a whole, favours compounds with a hit. Of some 83,000 tested, about 20% had one in any assay.
List of growth values.
# unit: % | format: bare number

Examples from the recorded data:
compound=CS(=O)(=O)Nc1ccc(Nc2c3ccccc3nc3cc([N+](=O)[O-])ccc23)cc1 units_text=% experimental_value=17.1
compound=COc1ccc(/C=C2/CN(C(=O)c3ccc(C)cc3)C/C(=C\c3ccc(OC)cc3)C2=O)cc1 units_text=% experimental_value=97.6
compound=COc1ccc2c(c1)sc1nc(-c3ccccc3)c(-c3ccsc3)n12 units_text=% experimental_value=3.28

Entry "COc1ccc(Nc2ccnc(NCCNc3ccnc4cc(Cl)ccc34)n2)cc1" — recorded growth = 38.8

Noted for COc1cc(/C=C2\CCCC3=C2N=C2SC=NN2C3c2cc(OC)c(OC)c(OC)c2)cc(OC)c1OC (stereo not given) : its growth reads 25.7

* * *

# System: OVCAR-3 ovarian
# assay explanation: NCI-60 one-dose screen, 48 h (100 = growth as untreated, 0 = no growth, -100 = all killed)
# protocol conditions: 10 µM
Compounds without any hit were thinned out: in the full panel of roughly 83,000, 20% have a hit. The source made the active and inactive calls. Rule for the calls: active = growth percent below 10; inactive = the rest.
quantity: growth

Some entries whose results are on file:
compound="O=C(O)CC(Cl)C(Cl)CC(=O)O (stereo unspecified)" experimental_value="106% (inactive)"
compound=Clc1cccc(-c2nc(-c3cccs3)no2)c1 experimental_value="104% (inactive)"
compound=Cn1c(C(N)=O)cc2c1-c1nc(Nc3ccccc3)ncc1CCC2 experimental_value="63.5% (inactive)"
compound="O=C1OCC2=C1C(c1cccc(Cl)c1)c1cc3c(cc1N2CCO)OCCO3 (stereo unspecified)" experimental_value="-52.2% (active)"
compound=C#Cc1ccc(-n2c(/C=C/c3ccc(O)c(OC)c3)nc3ncccc3c2=O)cc1 experimental_value="100% (inactive)"

growth measured on CC1CC(=O)OC(C)C1 (stereo unspecified) = 116% (inactive)
